Tested on: A-375 cells
Assay: Sulforhodamine B (SRB) cell viability assay
Type: cell-based
Conditions: Homo sapiens, 72 h

SMILES REPRESENTATION	IC50 [µM]
O=C(N/N=C/c1ccc2cccc(O)c2n1)c1ccccc1	12.3

----------
Entries annotated with measured MIC
System: S. aureus ATCC 25928
Experiment: MIC determination
Format: cell-based, Staphylococcus aureus
Settings: S. aureus ATCC 25928 (sensitive); 18 h
Procedure: Wild-type Escherichia coli K-12 AG100 strain [argE3 thi-1 rpsL xyl mtl Δ(gal-uvrB) supE44] expressing the AcrAB TolC efflux pump at its basal level and Klebsiella pneumoniae ATCC 49619 Gram-negative strains were studied in the experiments. […] Minimum inhibitory concentration (MIC) values of selected compounds were determined in 96-well plates based on the Clinical and Laboratory Standard Institute guidelines (CLSI guidelines). […]
ASSAY READOUT: MIC

MOLECULE	ASSAY READOUT	RESULT
CC(=O)[O-].O=C(NN=Cc1ccc2cccc([O-])c2n1)c1ccccc1.[Cu+2] [Complex 1, [Cu(HL^1)(AcO)]]	MIC	50 µM
[Cl][Cu][Cl] [CuCl2, reference compound]	MIC	> 100 µM
COc1ccc(C([O-])=NN=Cc2ccc3cccc([O-])c3n2)cc1.[Cu+2] [Complex 5, [Cu(L^5)]3]	MIC	100 µM
[Cu+2].[O-]C(=NN=Cc1ccc2cccc([O-])c2n1)c1ccc(F)cc1 [Complex 3, [Cu(L^3)]3]	MIC	100 µM
O=C([N-]N=Cc1ccc2cccc([O-])c2n1)c1ccc(O)cc1.O=C([N-]N=Cc1ccc2cccc([O-])c2n1)c1ccc(O)cc1.O=C([N-]N=Cc1ccc2cccc([O-])c2n1)c1ccc(O)cc1.[Cu+2].[Cu+2].[Cu+2] [Complex 6, [Cu(L^6)]3]	MIC	> 100 µM
[Cu+2].[O-]C(=NN=Cc1ccc2cccc([O-])c2n1)c1ccncc1 [Complex 8, [Cu(L^8)]3]	MIC	> 100 µM
